Biological target: hemagglutinin (HA) of influenza A/New York/107/03 (PR8) (influenza A virus A/New York/107/03 (PR8))
Assay: cell-based or functional assay
Readout Name: VNA IC50 (nM)
Enter your answer as a number in nM; do not include the unit.

Query (binder): SD3098 (VHH) VHH: EVQLLESGGGLVQPGGSLRLSCAASGRTYAMGWFRQAPGKEREFVAAINALGTRTYYADSVKGRFTISRDNSKNTLYLQMNSLRPEDTAVYYCTAQGQWRAAPVAVAAEYEFWGQGTLVTVSS ; field requested: VNA IC50
16

These measurements were taken from patent US20190359693A1.
